system: HL-60; assay: Cytotoxicity against human HL60 cells assessed as decrease in cell viability after 48 hrs by MTS assay; assay type: functional, cell-based; conditions: HL-60, 48 h
The compounds listed here are annotated with their IC50.
quantity: IC50

[[record]]
item_smiles = "C=C1[C@@H]([C@H](C)CC/C=C(/C)C(=O)O)CC[C@@]2(C)C3=CC(=O)[C@H]4C(C)(C)[C@H](OC(C)=O)CC[C@]4(C)[C@@H]3C[C@@H]12"
quantity = "IC50"
result = "> 10 µM"

[[record]]
item_smiles = "C/C(=C/CC[C@@H](C)C1=C(CO)[C@@H]2C[C@@H]3C(=CC[C@H]4C(C)(C)C(=O)CC[C@]34C)[C@]2(C)CC1)C(=O)O"
quantity = "IC50"
result = "> 10 µM"

[[record]]
item_smiles = "C=C1[C@@H]([C@H](C)CC/C=C(/C)C(=O)O)CC[C@]2(C)[C@H]1C[C@H]1[C@@]3(C)CCC(=O)C(C)(C)[C@@H]3C[C@@H]3O[C@@]312"
quantity = "IC50"
result = "> 10 µM"

